molecular target: human AspH (His6-AspH315–758) (Homo sapiens, UniProt Q12797); construct: N-Terminally His6-tagged human AspH315–758 (His6-AspH315–758) was produced in Escherichia coli BL21 (DE3) cells; made in house; host or cells: Escherichia coli BL21 (DE3), pET-28a(+) vector; assay: SPE-MS AspH inhibition assay (hFX-CP101-119 substrate hydroxylation); type: biochemical; settings: AspH-inhibitor screening, Plate 1-duplicate
Counter-ions that a name gives are not always drawn.
quantity: Plate 1-duplicate (% inhibition) (%)

A: COc1ccc(-c2cc3c(C)nc(N)nc3n([C@H]3CC[C@H](OCCO)CC3)c2=O)cn1 [PF-04691502]
B: COc1cccc2cc(-c3nc([C@H]4CC[C@H](C(=O)O)CC4)n4ncnc(N)c34)[nH]c12 [OSI-027]
C: NCC(=O)CCC(=O)O [Aminolevulinic acid hydrochloride]
D: CS(=O)(=O)OCCCCOS(C)(=O)=O [Busulfan]
Ask | Put the compounds in ascending order of Plate 1-duplicate (% inhibition). Give me the labels in the order the question wants.
Reply | A, B, D, C
(A: -5.13%, B: -2.62%, D: 8.69%, C: 25.89%)

----------
biological target: human AspH (His6-AspH315–758) (Homo sapiens); construct: N-Terminally His6-tagged human AspH315–758 (His6-AspH315–758) was produced in Escherichia coli BL21 (DE3) cells; made in house; host or cells: Escherichia coli BL21 (DE3), pET-28a(+) vector; test: SPE-MS AspH inhibition assay (hFX-CP101-119 substrate hydroxylation); assay type: biochemical; settings: AspH-inhibitor screening, 384-well Plate 1
quantity: Plate 1 (% inhibition) (%)

| molecule | quantity | result.unit | reported.result |
| --- | --- | --- | --- |
| CC(=O)O[C@]1(C(C)=O)CC[C@H]2[C@@H]3C=C(C)C4=CC(=O)CC[C@]4(C)[C@H]3CC[C@@]21C [Megestrol acetate] | Plate 1 (% inhibition) | % | -14.51 |

a: COc1cc2c(N3CCN(C(=O)Nc4ccc(OC(C)C)cc4)CC3)ncnc2cc1OCCCN1CCCCC1
b: C#CCC(Cc1cnc2nc(N)nc(N)c2n1)c1ccc(C(=O)N[C@@H](CCC(=O)O)C(=O)O)cc1 (stereo partly shown) [Pralatrexate]
c: Nc1cccc2c1C(=O)N(C1CCC(=O)NC1=O)C2=O (stereo not shown) [Pomalidomide]
d: N#CCNC(=O)c1ccc(-c2ccnc(Nc3ccc(N4CCOCC4)cc3)n2)cc1
Ask | Task field, ranking: reported Plate 1 (% inhibition), descending order. Put the labels in the requested order and list them out.
Reply | b, d, c, a
(b: 13.78%, d: 5.72%, c: 0.86%, a: -11.71%)

----------
molecular target: human AspH (His6-AspH315–758) (Homo sapiens, UniProt Q12797); construct: N-Terminally His6-tagged human AspH315–758 (His6-AspH315–758) was produced in Escherichia coli BL21 (DE3) cells; made in house; host or cells: Escherichia coli BL21 (DE3), pET-28a(+) vector; experiment: SPE-MS AspH inhibition assay (hFX-CP101-119 substrate hydroxylation); type: biochemical; details: AspH-inhibitor screening, 384-well Plate 1
quantity: Plate 1 (% inhibition) (%)

Observe how each entry below is paired with its result.
| compound | quantity | result.unit | reported.result |
| --- | --- | --- | --- |
| Cc1c(C(=O)Nc2ccc(N3C[C@@H](C)O[C@@H](C)C3)nc2)cccc1-c1ccc(OC(F)(F)F)cc1.O=P(O)(O)O.O=P(O)(O)O [NVP-LDE225 (Diphosphate salt)] | Plate 1 (% inhibition) | % | -20.13 |
| C[C@@H]1C=C2C(=O)O[C@@H]3CC[C@H](C1)[C@]23O | Plate 1 (% inhibition) | % | 15.61 |
| C=C1C[C@@H]2[C@H](CC[C@]3(C)C(=O)CC[C@@H]23)[C@@]2(C)C=CC(=O)C=C12 | Plate 1 (% inhibition) | % | -2.81 |
| O=C(O)CCCc1ccc(N(CCCl)CCCl)cc1 | Plate 1 (% inhibition) | % | 2.87 |
| Nc1nc(F)nc2c1ncn2[C@@H]1O[C@H](COP(=O)(O)O)[C@@H](O)[C@@H]1O [Fludarabine phosphate] | Plate 1 (% inhibition) | % | 5.12 |

1: COc1ncc(-c2ccc3nccc(-c4ccnnc4)c3c2)cc1NS(=O)(=O)c1ccc(F)cc1F
2: CO[C@H]1C(=O)[C@]2(C)[C@@H](OC)C[C@H]3OC[C@@]3(OC(C)=O)[C@H]2[C@H](OC(=O)c2ccccc2)[C@]2(O)C[C@H](OC(=O)[C@H](O)[C@@H](NC(=O)OC(C)(C)C)c3ccccc3)C(C)=C1C2(C)C
Ask | Sorting ascending by Plate 1 (% inhibition), which comes first: 1 or 2 ? Could you answer with the label of the item you picked?
Reply | 2

P: COc1ccc(C2=N[C@@H](c3ccc(Cl)cc3)[C@@H](c3ccc(Cl)cc3)N2C(=O)N2CCNC(=O)C2)c(OC(C)C)c1
Q: CC[C@H](Nc1ncnc2[nH]cnc12)c1nc2cccc(F)c2c(=O)n1-c1ccccc1 [Idelalisib]
Ask | Endpoint returns whichever of P and Q has the numerically higher Plate 1 (% inhibition). Respond with the label that goes with your answer.
Reply | Q
(Q: 9.55%, P: -13.27%)

A: CC(C)n1cnc2c(NCCc3ccc(O)cc3)nc(-c3csc4ccccc34)nc21.Cl [SR1 HCl]
B: CC[C@H](Nc1ncnc2[nH]cnc12)c1nc2cccc(F)c2c(=O)n1-c1ccccc1 [CAL-101]
C: CC(C)(C)NC(=O)[C@H]1CC[C@H]2[C@@H]3CC[C@H]4NC(=O)C=C[C@]4(C)[C@H]3CC[C@]12C [Finasteride]
D: Nc1ccccc1NC(=O)c1ccc(CNC(=O)OCc2cccnc2)cc1
E: CC(C)C[C@H](NC(=O)[C@H](CCc1ccccc1)NC(=O)CN1CCOCC1)C(=O)N[C@@H](Cc1ccccc1)C(=O)N[C@@H](CC(C)C)C(=O)[C@@]1(C)CO1
Ask | Write the entries in order, lowest recorded Plate 1 (% inhibition) first. Write the labels out in the order the request specifies.
Reply | D, C, E, B, A
(D: -5.93%, C: -3.25%, E: -2.16%, B: 5.28%, A: 33.05%)

----------
Biological target: human AspH (His6-AspH315–758) (Homo sapiens)
Construct: N-Terminally His6-tagged human AspH315–758 (His6-AspH315–758) was produced in Escherichia coli BL21 (DE3) cells; made in house; host or cells: Escherichia coli BL21 (DE3), pET-28a(+) vector
Sequence (Q12797 315-758): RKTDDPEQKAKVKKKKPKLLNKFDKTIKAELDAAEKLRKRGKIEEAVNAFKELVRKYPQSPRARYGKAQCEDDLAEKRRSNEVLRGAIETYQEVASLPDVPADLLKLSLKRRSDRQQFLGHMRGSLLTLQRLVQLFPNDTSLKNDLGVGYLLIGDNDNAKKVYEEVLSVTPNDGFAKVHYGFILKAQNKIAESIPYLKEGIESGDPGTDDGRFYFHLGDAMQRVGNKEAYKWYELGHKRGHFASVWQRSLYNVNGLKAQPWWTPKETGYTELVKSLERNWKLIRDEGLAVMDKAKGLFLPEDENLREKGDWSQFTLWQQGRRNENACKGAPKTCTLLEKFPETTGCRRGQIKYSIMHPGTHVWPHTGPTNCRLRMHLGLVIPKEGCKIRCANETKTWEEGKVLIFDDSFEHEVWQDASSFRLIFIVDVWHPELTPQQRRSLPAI
Experiment: SPE-MS AspH inhibition assay (hFX-CP101-119 substrate hydroxylation)
Assay type: biochemical
Conditions: AspH-inhibitor screening, 384-well Plate 1
Where a name gives a salt, the structure may show the parent alone.
quantity: Plate 1 (% inhibition) (%)

Use the examples below as a reference point.
| compound | result.unit | reported.result |
| --- | --- | --- |
| NCCCNCCSP(=O)(O)O | % | 3.65 |
| COc1cccc2c1C(=O)c1c(O)c3c(c(O)c1C2=O)C[C@@](O)(C(C)=O)C[C@@H]3O[C@H]1C[C@H](N)[C@H](O)[C@H](C)O1 [Daunorubicin hydrochloride] | % | -28.45 |

P: CS(=O)(=O)c1ccc(C(=O)Nc2ccc(Cl)c(-c3ccccn3)c2)c(Cl)c1
Q: O=C(/C=C/c1cccc(S(=O)(=O)Nc2ccccc2)c1)NO
Ask | Identify the item whose Plate 1 (% inhibition) is the smaller number: P or Q # respond with the chosen item's label
Reply | P
(P: 10.42%, Q: 97.27%)

----------
molecular target: human AspH (His6-AspH315–758) (Homo sapiens); construct: N-Terminally His6-tagged human AspH315–758 (His6-AspH315–758) was produced in Escherichia coli BL21 (DE3) cells; made in house; host or cells: Escherichia coli BL21 (DE3), pET-28a(+) vector; assay: SPE-MS AspH inhibition assay (hFX-CP101-119 substrate hydroxylation); assay type: biochemical; settings: AspH-inhibitor screening, Plate 1-duplicate
Starred links: 1 amine or outer side, 2 acyl side, 3 side chain; linkers in the order of their positions; H or OH if unused. Positions of bridges follow the written chain, without caps; N, C: chain ends. Non-standard residues stand in square brackets, D forms with d. Residues, ends and D or L forms follow the SMILES beside them. Chains are numbered I, II in the order given. Actinocin(9to1) = Cc1c2oc3c(C)ccc(C(=O)[*:1])c3nc-2c(C(=O)[*:2])c(N)c1=O; NMeV = CN[C@H](C(=O)O)C(C)C; Sar = CNCC(=O)O
quantity: Plate 1-duplicate (% inhibition) (%)

Worked cases, Plate 1-duplicate (% inhibition) given:
| molecule | reported.result |
| --- | --- |
| Nc1cccc2c1CN(C1CCC(=O)NC1=O)C2=O (stereo not shown) [Lenalidomide] | 4.54 |
| S=P(N1CC1)(N1CC1)N1CC1 | 7.73 |
| Cc1c2oc3c(C)ccc(C(=O)N[C@@H]4C(=O)N[C@H](C(C)C)C(=O)N5CCC[C@H]5C(=O)N(C)CC(=O)N(C)[C@@H](C(C)C)C(=O)O[C@@H]4C)c3nc-2c(C(=O)N[C@@H]2C(=O)N[C@H](C(C)C)C(=O)N3CCC[C@H]3C(=O)N(C)CC(=O)N(C)[C@@H](C(C)C)C(=O)O[C@@H]2C)c(N)c1=O [Dactinomycin] (I: T[dV]P[Sar][NMeV] / II: T[dV]P[Sar][NMeV]; ester I:1-I:C, II:1-II:C; linker I:N-II:N via Actinocin(9to1)) | -9.41 |
| COc1nc(N)nc2c1ncn2[C@@H]1O[C@H](CO)[C@@H](O)[C@@H]1O | 1.44 |
| Cn1c(=O)c(F)c(Nc2ccc(I)cc2F)c2c(=O)n(C[C@@H](O)CO)cnc21 | -22.24 |

I: O=C(NC[C@H](O)CO)c1ccncc1Nc1ccc(I)cc1F
II: CC/C(=C(\c1ccc(O)cc1)c1ccc(OCCN(C)C)cc1)c1ccccc1 [4-hydroxytamoxifen]
Ask | Recorded Plate 1-duplicate (% inhibition) values differ for I and II ; which one is higher? Choose, then provide that item's label.
Reply | I

Values compiled from paper PMC7588595.
